Each recorded value in this set is attributed to patent US20170305994A1.

List of IFN-γ, TL1A-costimulated lymphocytes, Fab 0.03 µg/mL values.
Biological target: T1, human DR3 (full length, on cells) (human, UniProt Q93038 25-417)
T1 sequence: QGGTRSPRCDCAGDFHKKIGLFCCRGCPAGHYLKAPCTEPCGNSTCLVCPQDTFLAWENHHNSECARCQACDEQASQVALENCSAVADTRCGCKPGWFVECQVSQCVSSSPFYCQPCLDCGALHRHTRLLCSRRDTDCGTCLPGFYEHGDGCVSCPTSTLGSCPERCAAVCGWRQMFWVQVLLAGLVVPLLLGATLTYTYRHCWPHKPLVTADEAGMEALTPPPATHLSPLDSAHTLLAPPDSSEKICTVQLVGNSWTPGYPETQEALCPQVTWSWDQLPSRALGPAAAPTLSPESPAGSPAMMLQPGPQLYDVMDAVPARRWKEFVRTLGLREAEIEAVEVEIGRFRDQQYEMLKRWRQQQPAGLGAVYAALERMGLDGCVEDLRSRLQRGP
Test: cell-based or functional assay
METRIC_NAME: IFN-γ, TL1A-costimulated lymphocytes, Fab 0.03 µg/mL

BINDER: 0171 (humanized IgG1 Fab of 0072 without back mutations) (Fab, V domains shown) VH: EVQLVESGGGLVQPGGSLRLSCAASGFTFSNYDMSWVRQATGKGLEWVSAFSSDGYTFYPGSVKGRFTISRENAKNSLYLQMNSLRAGDTAVYYCARHADYANYPVMDYWGQGTLVTVSS VL: DIQMTQSPSSLSASVGDRVTITCRASKSVSTSGYSYMHWYQQKPGKAPKLLIYLASNLESGVPSRFSGSGSGTDFTLTISSLQPEDFATYYCQHSRELPLTFGGGTKVEIK
OBSERVED_VALUE: 69 ng/mL
--
BINDER: 0173 (humanized IgG1 Fab of 0072; HC T28A S49A Y91S; LC Q3A T5A S60A M4L) (Fab, V domains shown) VH: EVQLVESGGGLVQPGGSLRLSCAASGFTFSNYDMSWVRQAAGKGLEWVSAFSSDGYTFYPGAVKGRFTISRENAKNSLYLQMNSLRAGDTAVYYCARHADYANSPVMDYWGQGTLVTVSS VL: DIALAQSPSSLSASVGDRVTITCRASKSVSTSGYSYMHWYQQKPGKAPKLLIYLASNLEAGVPSRFSGSGSGTDFTLTISSLQPEDFATYYCQHSRELPLTFGGGTKVEIK
OBSERVED_VALUE: 95 ng/mL
--
BINDER: 0169 (humanized IgG1 Fab of 0072; HC T28A S49A Y91; LC Q3A T5A S60A M4L) (Fab, V domains shown) VH: EVQLVESGGGLVQPGGSLRLSCAASGFTFSNYDMSWVRQAAGKGLEWVSAFSSDGYTFYPGAVKGRFTISRENAKNSLYLQMNSLRAGDTAVYYCARHADYANYPVMDYWGQGTLVTVSS VL: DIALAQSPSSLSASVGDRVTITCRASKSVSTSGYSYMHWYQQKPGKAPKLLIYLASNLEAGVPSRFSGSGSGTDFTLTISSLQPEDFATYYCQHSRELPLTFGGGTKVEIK
OBSERVED_VALUE: 81 ng/mL
--
BINDER: 0118 (chimeric Fab of 27F16, human IgG1 constant domain) (Fab, V domains shown) VH: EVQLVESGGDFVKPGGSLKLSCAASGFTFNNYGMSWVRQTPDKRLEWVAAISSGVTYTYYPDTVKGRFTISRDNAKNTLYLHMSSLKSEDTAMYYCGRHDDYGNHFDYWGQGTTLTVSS VL: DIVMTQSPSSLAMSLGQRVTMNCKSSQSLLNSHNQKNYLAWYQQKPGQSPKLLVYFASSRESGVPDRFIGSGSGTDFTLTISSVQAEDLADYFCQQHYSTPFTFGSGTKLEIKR
OBSERVED_VALUE: 158 ng/mL
